# system.name: Alpha-mannosidase 2 (Drosophila melanogaster)
# Sequence (Q24451 whole entry): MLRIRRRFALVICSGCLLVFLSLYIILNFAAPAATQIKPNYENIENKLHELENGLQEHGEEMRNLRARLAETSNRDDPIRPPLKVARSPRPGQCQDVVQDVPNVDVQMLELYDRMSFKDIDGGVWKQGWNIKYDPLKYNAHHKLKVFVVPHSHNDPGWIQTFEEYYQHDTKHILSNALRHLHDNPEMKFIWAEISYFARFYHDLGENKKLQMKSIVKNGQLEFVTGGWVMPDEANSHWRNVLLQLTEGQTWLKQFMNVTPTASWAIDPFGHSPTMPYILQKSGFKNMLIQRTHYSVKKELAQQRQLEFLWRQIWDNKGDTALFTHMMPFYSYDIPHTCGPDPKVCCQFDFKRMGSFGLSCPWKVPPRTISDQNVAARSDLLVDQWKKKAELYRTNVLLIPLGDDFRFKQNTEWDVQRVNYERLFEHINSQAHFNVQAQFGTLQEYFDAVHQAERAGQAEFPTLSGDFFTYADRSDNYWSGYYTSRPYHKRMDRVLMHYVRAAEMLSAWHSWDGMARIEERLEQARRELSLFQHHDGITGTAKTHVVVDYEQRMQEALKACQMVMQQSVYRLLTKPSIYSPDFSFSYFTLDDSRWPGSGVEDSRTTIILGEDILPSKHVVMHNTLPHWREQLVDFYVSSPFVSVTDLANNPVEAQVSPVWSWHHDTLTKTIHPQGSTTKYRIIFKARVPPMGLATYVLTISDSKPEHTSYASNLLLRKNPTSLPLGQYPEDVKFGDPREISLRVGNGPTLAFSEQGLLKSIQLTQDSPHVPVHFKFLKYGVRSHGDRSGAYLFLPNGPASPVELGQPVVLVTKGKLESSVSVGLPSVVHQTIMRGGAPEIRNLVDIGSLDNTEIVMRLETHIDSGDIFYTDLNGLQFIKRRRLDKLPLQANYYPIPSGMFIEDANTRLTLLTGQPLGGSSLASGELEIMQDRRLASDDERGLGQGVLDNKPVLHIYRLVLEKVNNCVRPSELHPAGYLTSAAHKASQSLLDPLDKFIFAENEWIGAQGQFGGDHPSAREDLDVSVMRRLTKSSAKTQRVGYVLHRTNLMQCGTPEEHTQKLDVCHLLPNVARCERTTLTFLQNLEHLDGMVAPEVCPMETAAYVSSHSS
parameter.measured: pIC50
Quick note: pIC50 means taking -log10 of the concentration in moles per liter.

# input // Input: N[C@H]1[C@@H](O)[C@@H](O)[C@@H](O)[C@H]1O . Output its pIC50 only.
# output 4.00

----------
# system.name: Alpha-mannosidase 2 (Drosophila melanogaster)
# test.name: Inhibition Assay
parameter.measured: pKi
Quick note: pKi means taking -log10 of the concentration in moles per liter.

# input // Input: C[S+]([O-])[C@@H]1[C@@H](N)[C@@H](O)[C@@H](O)[C@H]1O (stereo partly specified) . Output its pKi only.
# output 6.82
